Catalogue of compounds with associated CYP2C9 Efficacy (in parenthesis)
- Target under test: human CYP2C9 (Homo sapiens)
- Sequence (P11712 whole entry): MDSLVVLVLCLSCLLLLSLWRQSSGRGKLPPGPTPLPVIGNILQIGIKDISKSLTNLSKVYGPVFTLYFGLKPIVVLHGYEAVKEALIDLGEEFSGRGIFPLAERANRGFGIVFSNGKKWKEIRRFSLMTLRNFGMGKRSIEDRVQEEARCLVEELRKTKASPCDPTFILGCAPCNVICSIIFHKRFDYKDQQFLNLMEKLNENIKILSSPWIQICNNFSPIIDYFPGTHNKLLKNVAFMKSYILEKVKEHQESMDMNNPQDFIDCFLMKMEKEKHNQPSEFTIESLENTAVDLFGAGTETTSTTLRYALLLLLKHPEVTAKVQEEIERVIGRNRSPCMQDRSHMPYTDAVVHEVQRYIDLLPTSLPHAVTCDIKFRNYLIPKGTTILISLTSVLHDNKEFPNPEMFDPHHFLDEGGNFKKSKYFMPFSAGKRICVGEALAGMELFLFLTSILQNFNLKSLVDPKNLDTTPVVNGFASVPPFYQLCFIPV
- Condition parameters: human
Endpoint name: CYP2C9 Efficacy (in parenthesis)

Compound	Target under test	Value
COP(=S)(OC)Oc1ccc(S(=O)(=O)N(C)C)cc1 [Famphur]	human CYP2C9 (Homo sapiens)	0.4 ± 0.05 (-109 ± 5) %
CC(C1CC1)C(O)(Cn1cncn1)c1ccc(Cl)cc1 (stereo not drawn) [Cyproconazole]	human CYP2C9 (Homo sapiens)	0.13 ± 0.04 (-105 ± 6) %
Clc1ccc(Nc2nnc(Cc3ccncc3)c3ccccc23)cc1 [Vatalanib]	human CYP2C9 (Homo sapiens)	0.79 ± 0.66 (-96 ± 3) %
CC(C)C1CCC(Cc2ccc(Cl)cc2)C1(O)Cn1cncn1 (stereo not drawn) [Ipconazole]	human CYP2C9 (Homo sapiens)	0.79 ± 0.09 (-94 ± 4) %
Clc1ccc(C2(Cn3cncn3)OCCO2)c(Cl)c1 [Azaconazole]	human CYP2C9 (Homo sapiens)	15.38 ± 2.12 (-103 ± 8) %
O=C1N(c2ccccc2)c2ccccc2C1(Cc1ccncc1)Cc1ccncc1 [Linopirdine]	human CYP2C9 (Homo sapiens)	3.04 ± 0.74 (-95 ± 5) %
CC(C)(C)C(O)(CCc1ccc(Cl)cc1)Cn1cncn1 (stereo not drawn) [Tebuconazole]	human CYP2C9 (Homo sapiens)	3.3 ± 0.22 (-104 ± 4) %
COC(=O)N(OC)c1ccccc1COc1ccn(-c2ccc(Cl)cc2)n1 [Pyraclostrobin]	human CYP2C9 (Homo sapiens)	5.35 ± 1.51 (-104 ± 6) %
Cc1ccccc1C(=O)Nc1ccc(C(=O)N2CCCC(N(C)C)c3ccccc32)cc1 (stereo not drawn) [Mozavaptan]	human CYP2C9 (Homo sapiens)	26.02 ± 12.23 (-35 ± 0) %

====

- Target under test: human CYP2D6 (Homo sapiens)
- Sequence (P10635 whole entry): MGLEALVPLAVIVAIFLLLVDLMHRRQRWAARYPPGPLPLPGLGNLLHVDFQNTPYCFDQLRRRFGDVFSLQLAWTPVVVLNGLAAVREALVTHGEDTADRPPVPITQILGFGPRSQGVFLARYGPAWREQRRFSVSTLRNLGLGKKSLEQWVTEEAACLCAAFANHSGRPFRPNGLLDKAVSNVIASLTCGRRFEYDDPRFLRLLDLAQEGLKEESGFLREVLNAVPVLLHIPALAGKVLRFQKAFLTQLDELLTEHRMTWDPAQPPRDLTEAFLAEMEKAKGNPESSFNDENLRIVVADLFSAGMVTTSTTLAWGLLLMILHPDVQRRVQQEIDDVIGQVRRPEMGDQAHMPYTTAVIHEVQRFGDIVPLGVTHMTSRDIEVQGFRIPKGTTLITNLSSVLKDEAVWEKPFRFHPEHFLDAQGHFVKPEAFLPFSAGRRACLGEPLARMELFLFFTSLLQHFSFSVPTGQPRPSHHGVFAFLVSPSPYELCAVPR
- Test name: biochemical
pIC50: −log10 of the molar value. Structures can show the parent of a compound that is named as a salt.

Molecule	pIC50
O=c1cc(-c2ccccc2)oc2ccccc12	4.20
COC(=O)C1=C(C)NC(C)=C(C(=O)OC(C)(C)CN(C)CCC(c2ccccc2)c2ccccc2)C1c1cccc([N+](=O)[O-])c1 (stereo not drawn) [Lercanidipine hydrochloride]	5.35
Nc1ccc(C(=O)N2CC3CC(CN(Cc4ccccc4)C3)C2)cc1 [Ambasilide]	4.70
COc1nn(CSP(=S)(OC)OC)c(=O)s1	4.45
CCOP(=S)(OCC)Oc1cnc2ccccc2n1	4.41
COP(=S)(OC)Oc1ccc(S(=O)(=O)N(C)C)cc1	4.45

====

- Target under test: human CYP2C19 (Homo sapiens, UniProt P33261)
- Sequence (P33261 whole entry): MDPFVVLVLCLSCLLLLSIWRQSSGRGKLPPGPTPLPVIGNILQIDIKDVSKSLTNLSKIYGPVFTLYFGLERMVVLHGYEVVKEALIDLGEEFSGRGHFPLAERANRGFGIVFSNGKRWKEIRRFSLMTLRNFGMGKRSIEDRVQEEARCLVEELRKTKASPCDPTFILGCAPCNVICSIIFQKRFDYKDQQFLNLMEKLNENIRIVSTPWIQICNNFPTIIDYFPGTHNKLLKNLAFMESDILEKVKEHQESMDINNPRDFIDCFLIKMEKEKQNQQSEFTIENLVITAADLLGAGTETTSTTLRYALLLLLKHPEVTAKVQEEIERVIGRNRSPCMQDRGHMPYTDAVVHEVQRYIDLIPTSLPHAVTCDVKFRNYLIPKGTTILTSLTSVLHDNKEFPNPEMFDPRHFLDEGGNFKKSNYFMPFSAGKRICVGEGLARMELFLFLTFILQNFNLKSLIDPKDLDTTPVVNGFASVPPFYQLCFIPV
- Test name: biochemical
- Condition parameters: CYP2C19 IC50 (half-maximal inhibitory concentration)
pIC50: −log10 of the molar value.
Binary call on pIC50: Y from 5 upward, N beneath that.

Compound	Assigned class
COc1ccc2c(c1OC)CN1CCc3cc4c(cc3[C@@H]1C2)OCO4	Y
CNC(=O)Oc1ccc2c(c1)[C@]1(C)CCN(C)[C@@H]1N2C	N
O=C1c2ccccc2Cc2ccccc21	N
Clc1ccc(C(c2ccccc2Cl)C(Cl)Cl)cc1 (stereo not shown)	Y
CN(C)C(=O)Nc1ccc(Cl)c(Cl)c1	N
C[C@H]1CCCC(=O)CCC/C=C/c2cc(O)cc(O)c2C(=O)O1	N
CCCOC(=O)c1cncn1C(C)c1ccccc1 (stereo not shown) [Propoxate]	Y
Brc1c2ccccc2cc2ccccc12	N
CN1CCN(CCC(=O)N2c3ccccc3Sc3ccc(C(F)(F)F)cc32)CC1	N
N#C/C(=C1/SC[C@@H](c2ccc(Cl)cc2Cl)S1)n1ccnc1 [luliconazole, reference compound]	Y
